- System: PfAP2-LT AP2 domain (GST-tagged)
- assayProtocol: gcPBM binding intensity (ln(normalized median fluorescence intensity)); higher = stronger DNA binding
In all, about 25,000 sequences were measured (“ln(normalized median fluorescence intensity)”: median about 8.9, highest 2% from about 10 on). Shown is part of a subset that was picked to be rich in the highest values.
Reported gcPBM binding intensity (ln) is given for each of the following sequences.

Examples from the recorded data:
>>> reading("TTTGCTTCGATATATTCACACATTTTTTTTCTTATT [CACACA_site4499]")
8.91
>>> reading("TATTTTAAAAAAAAAAGTACACATAATATATATAAC [XGTACX_site5416]")
8.57
>>> reading("TCTTGTATACGGCATGCATGTTAGCACATACGGACA [TGCATGCA_site146]")
8.9

Ask: Which measured gcPBM binding intensity (ln) value corresponds to AAAATAAGAAAACAAATGCACACCATTTATATAGAT [CACACA_site1055] ?
Result: 9.03

Ask: Which measured gcPBM binding intensity (ln) value corresponds to ACAACACATATTCATCGTACATGTATTAGGAAGACA [XGTACX_site1859] ?
Result: 9.04
